Measured SARS-CoV-2 infection rate, listed per entry.
# Tested on: Vero E6 infected with SARS-CoV-2
# ASSAY_NOTES: SARS-CoV-2 infection rate relative to infected DMSO; higher = more infection, active = 60 or less
# TEST_SETTINGS: 24 h

Look up SARS-CoV-2 infection rate for this compound: O=c1[nH]cnc2c1ncn2[C@H]1CC[C@@H](CO)O1 [didanosine] (10 µM)
112% (inactive)

Now consider CC(=O)O[C@H]1Cc2ccccc2N(C(N)=O)c2ccccc21 [eslicarbazepine-acetate] (10 µM) .
106% (inactive)

Now this one: C1CCC2(CC1)CCNCC2 [4,4-pentamethylenepiperidine] (10 µM)
104% (inactive)

Okay, and O=C(CC1NCCCC1O)Cn1cnc2cc(Br)c(Cl)cc2c1=O (configuration not stated) [halofuginone] (0.833333 µM) ?
99.5% (inactive)

***
// query SARS-CoV-2 infection rate value for entry COc1ccc(C(=O)NCc2cccnc2)cc1C(=O)NCc1cccnc1 [picotamide] (10 µM)
115% (inactive)

For CO[C@@H]1[C@@H](O[C@@H]2O[C@H](C)[C@@H](O[C@H]3C[C@@](C)(O)[C@@H](OC(=O)CC(C)C)[C@H](C)O3)[C@H](N(C)C)[C@H]2O)[C@@H](CC=O)C[C@@H](C)[C@@H](O)/C=C/C=C/C[C@@H](C)OC(=O)C[C@H]1OC(C)=O [josamycin] (10 µM) then?
113% (inactive)

Cool, now CN1Cc2c(N)cccc2C(c2ccccc2)C1 (configuration not stated) [nomifensine] (10 µM)
109% (inactive)
